Target: human 14-3-3 ζ (Homo sapiens, UniProt P63104)
Sequence (P63104 1-245): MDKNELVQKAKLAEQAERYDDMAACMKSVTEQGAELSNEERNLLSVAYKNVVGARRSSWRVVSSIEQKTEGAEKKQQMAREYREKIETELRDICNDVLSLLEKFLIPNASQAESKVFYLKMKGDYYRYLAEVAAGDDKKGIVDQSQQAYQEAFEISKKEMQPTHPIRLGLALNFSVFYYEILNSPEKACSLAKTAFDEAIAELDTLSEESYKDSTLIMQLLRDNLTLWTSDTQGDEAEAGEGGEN
Experiment: BLI direct binding response of ginsenosides to immobilised 14-3-3 ζ
Settings: compound concentration 271μM; Fig. 3A and B
Measured property: direct binding response to 14-3-3 ζ (BLI)

Use the examples below as a reference point.
>>> result("CC(C)=CCC[C@](C)(O)[C@H]1CC[C@]2(C)[C@@H]1[C@H](O)C[C@@H]1[C@@]3(C)CC[C@H](O[C@@H]4O[C@H](CO)[C@@H](O)[C@H](O)[C@H]4O)C(C)(C)[C@@H]3CC[C@]12C [Rh2]")
"significant affinity"
>>> result("CC(C)=CCC[C@](C)(O)[C@H]1CC[C@]2(C)[C@@H]1[C@H](O)C[C@@H]1[C@@]3(C)CC[C@H](O)C(C)(C)[C@@H]3[C@@H](O[C@@H]3O[C@H](CO)[C@@H](O)[C@H](O)[C@H]3O)C[C@]12C [Rh1]")
"barely interacted"
>>> result("CC(C)=CCC[C@](C)(O[C@@H]1O[C@H](CO)[C@@H](O)[C@H](O)[C@H]1O)[C@H]1CC[C@]2(C)[C@@H]1[C@H](O)C[C@@H]1[C@@]3(C)CC[C@H](O)C(C)(C)[C@@H]3[C@@H](O)C[C@]12C [F1]")
"barely interacted"
>>> result("CC(C)=CCC[C@](C)(O[C@@H]1O[C@H](CO[C@@H]2O[C@H](CO)[C@@H](O)[C@H](O)[C@H]2O)[C@@H](O)[C@H](O)[C@H]1O)[C@H]1CC[C@]2(C)[C@@H]1[C@H](O)C[C@@H]1[C@@]3(C)CC[C@H](O[C@@H]4O[C@H](CO)[C@@H](O)[C@H](O)[C@H]4O[C@@H]4O[C@H](CO)[C@@H](O)[C@H](O)[C@H]4O)C(C)(C)[C@@H]3CC[C@]12C [Rb1]")
"barely interacted"
>>> result("CC(C)=CCC[C@](C)(O)[C@H]1CC[C@]2(C)[C@@H]1[C@H](O)C[C@@H]1[C@@]3(C)CC[C@H](O)C(C)(C)[C@@H]3[C@@H](O)C[C@]12C [PPT, 20(S)-protopanaxatriol]")
"significant affinity"

[ask] Test system human 14-3-3 ζ (Homo sapiens, UniProt P63104); read-out direct binding response to 14-3-3 ζ (BLI); what value for CC(C)=CCC[C@](C)(O[C@@H]1O[C@H](CO)[C@@H](O)[C@H](O)[C@H]1O)[C@H]1CC[C@]2(C)[C@@H]1[C@H](O)C[C@@H]1[C@@]3(C)CC[C@H](O)C(C)(C)[C@@H]3CC[C@]12C [CK, ginsenoside compound K] ?
[reply] significant affinity

[ask] Test system human 14-3-3 ζ (Homo sapiens, UniProt P63104); read-out direct binding response to 14-3-3 ζ (BLI); what value for CC(C)=CCC[C@](C)(O[C@@H]1O[C@H](CO)[C@@H](O)[C@H](O)[C@H]1O)[C@H]1CC[C@]2(C)[C@@H]1[C@H](O)C[C@@H]1[C@@]3(C)CC[C@H](O)C(C)(C)[C@@H]3[C@@H](O[C@@H]3O[C@H](CO)[C@@H](O)[C@H](O)[C@H]3O)C[C@]12C [Rg1] ?
[reply] significant affinity
